The measured values listed here are drawn from PubChem BioAssay AID1902.

Molecular target: S. pyogenes SKKanGAS, kanamycin survival, BacTiterGlo, 6 h
Assay: S. pyogenes SKKanGAS kanamycin growth inhibitors – SKKanGAS strain, luminescence, dose confirmation, streptokinase promoter inhibitor project, dose response (AID 1902);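 note: lower survival reflects blocked streptokinase promoter driving kanamycin resistance gene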
Calls of active or inactive are those of the source.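 Rule for the calls: active = EC50 no more than a set limit of log units above the highest dose; inactive = the rest.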
API: response.call in True (active), False (inactive)

| Compound | Group label |
| --- | --- |
| CCCN(Cc1ccco1)S(=O)(=O)c1ccc(OC)c(OC)c1 | False |

Tell me the recorded outcome of this test for CC(C)N1CCc2c(sc(NC(=O)c3ccc([N+](=O)[O-])o3)c2C(N)=O)C1 .
True

Tell me the recorded outcome of this test for Nc1c(C(=O)OCc2ccccc2)c2nc3ccccc3nc2n1Cc1cccs1 .
True

Tell me the recorded outcome of this test for CCCCC[n+]1ccn(C2=C([O-])c3ccccc3C(=O)/C2=N\S(=O)(=O)c2ccccc2)c1 .
True
